procedureText: Biodistribution study in LNCaP tumor-bearing mice (Th227 counted in organs)
Format: in vivo, SCID mice
details: 4 hr; 1500 kBq/kg
Entries annotated with measured Th-227 in Spleen
measureName: Th-227 in Spleen (% ID Th-227/g organ)

[[record]]
molecule = "O=C([O-])CN1CCN(CC(=O)[O-])CCN(CC(=O)NCc2ccc(C(=O)N[C@@H](Cc3ccc4ccccc4n3)C(=O)NCCCC[C@H](NC(=O)N[C@@H](CCC(=O)O)C(=O)O)C(=O)O)nc2)CCN(CC(=O)[O-])CC1.[227Th+4] [Example 34-B-227Th]"
measurename = "Th-227 in Spleen"
endpointresult = 11.57

[[record]]
molecule = "O=C([O-])CN1CCN(CC(=O)[O-])CCN(CC(=O)NCC2CCC(C(=O)NC(Cc3ccc4ccccc4c3)C(=O)NCCCCC(NC(=O)NC(CCC(=O)O)C(=O)O)C(=O)O)CC2)CCN(CC(=O)[O-])CC1.[227Th+4] [Example 1-B-D-227Th]"
measurename = "Th-227 in Spleen"
endpointresult = 0.34

[[record]]
molecule = "Cc1cc(C(=O)NCCN(CCCN(CCNC(=O)c2cc(C)n(CC(=O)O)c(=O)c2[O-])CCNC(=O)c2cc(C)n(CC(=O)NCC3CCC(C(=O)NC(Cc4cnc5ccccc5c4)C(=O)NCCCCC(NC(=O)NC(CCC(=O)O)C(=O)O)C(=O)O)CC3)c(=O)c2[O-])CCNC(=O)c2cc(C)n(CC(=O)NCC3CCC(C(=O)NC(Cc4cnc5ccccc5c4)C(=O)NCCCCC(NC(=O)NC(CCC(=O)O)C(=O)O)C(=O)O)CC3)c(=O)c2[O-])c([O-])c(=O)n1CC(=O)O.[227Th+4] (stereo not shown) [Example 22-C dimer-227Th]"
measurename = "Th-227 in Spleen"
endpointresult = 1.68

[[record]]
molecule = "O=C([O-])CN1CCN(CC(=O)[O-])CCN(CC(=O)NCC2CCC(C(=O)NC(Cc3ccc4ccccc4c3)C(=O)NCCCCC(NC(=O)NC(CCC(=O)O)C(=O)O)C(=O)O)CC2)CCN(CC(=O)[O-])CC1.[227Th+4] (stereo not shown) [Example 1-B-227Th]"
measurename = "Th-227 in Spleen"
endpointresult = 6.17

